- TARGET OF ASSAY: T1, recombinant rat MASP1 active protease (amino acids 302-704, C-terminal His Tag) (rat, UniProt Q8CHN8 302-704)
- T1 sequence: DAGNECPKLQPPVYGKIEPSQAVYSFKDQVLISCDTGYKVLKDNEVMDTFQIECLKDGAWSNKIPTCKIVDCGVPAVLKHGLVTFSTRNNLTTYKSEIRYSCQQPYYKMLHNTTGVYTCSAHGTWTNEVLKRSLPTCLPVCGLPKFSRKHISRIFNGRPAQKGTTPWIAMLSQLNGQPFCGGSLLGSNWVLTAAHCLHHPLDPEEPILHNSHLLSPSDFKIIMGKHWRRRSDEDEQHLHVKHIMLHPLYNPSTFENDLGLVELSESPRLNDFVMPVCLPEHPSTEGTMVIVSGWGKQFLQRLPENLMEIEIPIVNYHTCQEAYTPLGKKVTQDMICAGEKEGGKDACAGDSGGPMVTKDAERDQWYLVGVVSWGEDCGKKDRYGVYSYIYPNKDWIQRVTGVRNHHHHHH
- ASSAY NOTES: cell-based or functional assay
Numbered stars: 1 amine (or outer) side, 2 acyl side, 3 side chain; on linkers, the order of the positions; unused ones are H or OH. Bridge positions count the residues as written; N and C are the ends. Square brackets hold non-standard residues; d marks the D form. Ends that are not written are not given here. X17 = 2‑((1S,2S)-1-(Amino)-2-methylbutyl)‑1,3‑oxazole‑4‑carboxylic acid, CC[C@H](C)[C@H](N[*:1])c1nc(C(=O)[*:2])co1; Phe(2,5-diF) = O=C([C@H](Cc1cc(F)ccc1F)N[*:1])[*:2]; Oic = O=C(O)[C@@H]1C[C@@H]2CCCC[C@@H]2N1; PEG8 = NCCOCCOCCOCCOCCOCCOCCOCCOCCC(=O)O; tBuAla = CC(C)(C)C[C@H](N)C(=O)O; Pen = CC(C)(S)[C@H](N)C(=O)O; NMeC = CN[C@@H](CS)C(=O)O; PEG3 = NCCOCCOCCOCCC(=O)O; Orn = NCCC[C@H](N)C(=O)O; Ac4c = NC1(C(=O)O)CCC1; Sar = CNCC(=O)O
PROPERTY LABEL: rat MASP1 IC50
Write the quantity with the unit trailing the number.

Check out these entries, answers already filled in.
BINDER	rat MASP1 IC50
AICSRS[Phe(2,5-diF)]PPI[NMeC]IPD-NH2 (disulfide 3-11; N-terminus assumed; SMILES CC[C@H](C)[C@H](NC(=O)[C@H](C)N)C(=O)N[C@H]1CSSC[C@@H](C(=O)N[C@H](C(=O)N2CCC[C@H]2C(=O)N[C@@H](CC(=O)O)C(N)=O)[C@@H](C)CC)N(C)C(=O)[C@H]([C@@H](C)CC)NC(=O)[C@@H]2CCCN2C(=O)[C@@H]2CCCN2C(=O)[C@H](Cc2cc(F)ccc2F)NC(=O)[C@H](CO)NC(=O)[C@H](CCCNC(=N)N)NC(=O)[C@H](CO)NC1=O) [Example 235: AIC+SRS-((2,5-Difluoro)F)-PPI-((N-Me)C)+IPD-NH2]	380 nM
[Orn]ICSRSLPPICI-NH2 (disulfide 3-11; N-terminus assumed; SMILES CC[C@H](C)[C@H](NC(=O)[C@@H]1CSSC[C@H](NC(=O)[C@@H](NC(=O)[C@@H](N)CCCN)[C@@H](C)CC)C(=O)N[C@@H](CO)C(=O)N[C@@H](CCCNC(=N)N)C(=O)N[C@@H](CO)C(=O)N[C@@H](CC(C)C)C(=O)N2CCC[C@H]2C(=O)N2CCC[C@H]2C(=O)N[C@@H]([C@@H](C)CC)C(=O)N1)C(N)=O) [Example 236: (Orn)-IC+SRSLPPIC+I-NH2]	890 nM
[Sar]ICSRS[tBuAla]PPI[Pen]IP-{PEG8-NH2} (disulfide 3-11) [Example 74: ((N-Me)G)-IC+SRS-((tBu)A)-PPI-(Pen)+IP-(PEG8(28 atoms))-NH2]	71 nM
[Sar]ICSRSLP[Oic]I[Pen]IP-{PEG3-NH2} (disulfide 3-11) [Example 7: ((N-Me)G)-IC+SRSLP-(Oic)-I-(Pen)+IP-(PEG2(13 atoms))-NH2]	30 nM
[Ac4c]ICSRS[tBuAla]PPI[Pen]I-NH2 (disulfide 3-11; N-terminus assumed; SMILES CC[C@H](C)[C@H](NC(=O)[C@H]1NC(=O)[C@H]([C@@H](C)CC)NC(=O)[C@@H]2CCCN2C(=O)[C@@H]2CCCN2C(=O)[C@H](CC(C)(C)C)NC(=O)[C@H](CO)NC(=O)[C@H](CCCNC(=N)N)NC(=O)[C@H](CO)NC(=O)[C@@H](NC(=O)[C@@H](NC(=O)C2(N)CCC2)[C@@H](C)CC)CSSC1(C)C)C(N)=O) [Example 208: (ACBA)-IC+SRS-((tBu)A)-PPI-(Pen)+I-NH2]	61 nM

Query: What does the record list as rat MASP1 IC50 for [Sar]ICSRS[tBuAla]PPI[Pen]IP-{PEG3-NH2} (disulfide 3-11) [Example 72: ((N-Me)G)-IC+SRS-((tBu)A)-PPI-(Pen)+IP-(PEG2(13 atoms))-NH2] ?
Result: 43 nM

Query: Entry AICSRS[tBuAla]PPI[Pen]IP[dE]-NH2 (disulfide 3-11; N-terminus assumed; SMILES CC[C@H](C)[C@H](NC(=O)[C@H](C)N)C(=O)N[C@H]1CSSC(C)(C)[C@@H](C(=O)N[C@H](C(=O)N2CCC[C@H]2C(=O)N[C@H](CCC(=O)O)C(N)=O)[C@@H](C)CC)NC(=O)[C@H]([C@@H](C)CC)NC(=O)[C@@H]2CCCN2C(=O)[C@@H]2CCCN2C(=O)[C@H](CC(C)(C)C)NC(=O)[C@H](CO)NC(=O)[C@H](CCCNC(=N)N)NC(=O)[C@H](CO)NC1=O) [Example 21: AIC+SRS-((tBu)A)-PPI-(Pen)+IPe-NH2] : reported rat MASP1 IC50 = ?
Result: 67 nM

Query: Look at this binder and give its reported rat MASP1 IC50. AICSRS[tBuAla]PPI[NMeC][X17]D-NH2 (disulfide 3-11; N-terminus assumed; SMILES CC[C@H](C)[C@H](NC(=O)[C@H](C)N)C(=O)N[C@H]1CSSC[C@@H](C(=O)N[C@H](c2nc(C(=O)N[C@@H](CC(=O)O)C(N)=O)co2)[C@@H](C)CC)N(C)C(=O)[C@H]([C@@H](C)CC)NC(=O)[C@@H]2CCCN2C(=O)[C@@H]2CCCN2C(=O)[C@H](CC(C)(C)C)NC(=O)[C@H](CO)NC(=O)[C@H](CCCNC(=N)N)NC(=O)[C@H](CO)NC1=O)
Result: 13 nM

Query: Reported rat MASP1 IC50, binder AICSRS[tBuAla]PPI[NMeC]IPD-NH2 (disulfide 3-11; also: HCl salt) [Example 30: AIC+SRS-((tBu)A)-PPI-((N-Me)C)+IPD-NH2 (HCl salt)] : ____
Result: 28 nM

Query: GET /values?readout=rat MASP1 IC50&item= [dF]ICSRSLP[Oic]I[Pen]IP-NH2 (disulfide 3-11; N-terminus assumed; SMILES CC[C@H](C)[C@H](NC(=O)[C@H](N)Cc1ccccc1)C(=O)N[C@H]1CSSC(C)(C)[C@@H](C(=O)N[C@H](C(=O)N2CCC[C@H]2C(N)=O)[C@@H](C)CC)NC(=O)[C@H]([C@@H](C)CC)NC(=O)[C@@H]2C[C@@H]3CCCC[C@@H]3N2C(=O)[C@@H]2CCCN2C(=O)[C@H](CC(C)C)NC(=O)[C@H](CO)NC(=O)[C@H](CCCNC(=N)N)NC(=O)[C@H](CO)NC1=O) [Example 370: fIC+SRSLP-(Oic)-I-(Pen)+IP-NH2]
Result: 235 nM
